Catalogue of GI50 readings, one per entry.
System: PC-3 prostate
Assay Method Text: NCI tumour cell line growth inhibition, 48 h

Example entries begin here.
Determine from records and report GI50 for "CS(=O)(=O)Nc1ccc(Nc2c3ccccc3nc3cc(N)ccc23)cc1"
1310 nM

Kindly indicate its recorded GI50. Item: "C[C@H](O)CNc1cc(-c2[nH]c3cccnc3c2-c2ccc(F)cc2)ccn1"
> 23000 nM

Specify reported GI50 for the compound shown: "CCN(CC)CCOc1nc2c3ccc(Cl)cc3nn2c2ccccc12"
2290 nM

***
Answer with reported GI50 of "COc1ccc(C(=O)n2nc(/C=C/c3ccc(O)c(OC)c3)cc2/C=C/c2ccc(O)c(OC)c2)cc1"
496 nM
